Molecular target: Signal transducer and activator of transcription 3 (Homo sapiens, UniProt P40763)
Sequence (P40763 whole entry): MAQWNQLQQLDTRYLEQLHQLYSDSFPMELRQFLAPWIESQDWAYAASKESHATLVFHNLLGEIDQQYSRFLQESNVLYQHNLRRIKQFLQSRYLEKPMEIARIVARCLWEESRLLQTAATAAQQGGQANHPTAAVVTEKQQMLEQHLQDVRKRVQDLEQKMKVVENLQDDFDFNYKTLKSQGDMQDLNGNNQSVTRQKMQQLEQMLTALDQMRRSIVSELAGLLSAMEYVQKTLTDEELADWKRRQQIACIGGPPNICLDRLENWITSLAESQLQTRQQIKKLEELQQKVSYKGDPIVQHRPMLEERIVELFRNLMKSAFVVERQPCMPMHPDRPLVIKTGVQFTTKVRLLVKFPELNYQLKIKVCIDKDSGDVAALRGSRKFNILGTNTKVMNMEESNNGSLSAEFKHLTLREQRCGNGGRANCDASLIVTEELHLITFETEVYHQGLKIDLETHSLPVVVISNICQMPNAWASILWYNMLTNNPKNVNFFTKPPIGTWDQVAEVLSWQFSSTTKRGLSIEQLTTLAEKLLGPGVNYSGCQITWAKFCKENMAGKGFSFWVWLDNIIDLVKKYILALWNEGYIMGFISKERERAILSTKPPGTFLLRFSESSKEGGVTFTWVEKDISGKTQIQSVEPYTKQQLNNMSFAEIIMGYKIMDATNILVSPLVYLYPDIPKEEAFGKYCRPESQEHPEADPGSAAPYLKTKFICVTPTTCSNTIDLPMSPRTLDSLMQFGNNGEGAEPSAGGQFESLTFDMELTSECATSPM
Test: Inhibition of IL-23 induced STAT3 phosphorylation in human Jurkat cells incubated for 30 mins by microplate reader analysis
endpoint-name: IC50
In your response, the unit should come after the numeric value.

### Prompt What value of IC50 on Signal transducer and activator of transcription 3 (Homo sapiens, UniProt P40763) does `NC(=O)c1ccccc1Nc1cc(Nc2ccc(F)cn2)ncc1C(N)=O` have?
### Response 0.089 µM

----------
Molecular target: Signal transducer and activator of transcription 3 (Homo sapiens, UniProt P40763)
Test: Inhibition of IL-23 induced STAT3 phosphorylation in human KIT225 cells by AlphaLISA assay
I'd be grateful if you could share measured pIC50 for these entries.
One number for each entry, as −log10 of the molar value.

As a guide, the following entries are already answered.
{"compound-structure-string": "NC(=O)c1ccccc1Nc1cc(Nc2ccc(F)cn2)ncc1C(N)=O", "pIC50": 6.74}
{"compound-structure-string": "CNC(=O)c1cnc(Nc2ccc(F)cn2)cc1Nc1ccccc1S(C)(=O)=O", "pIC50": 6.64}
{"compound-structure-string": "[2H]C([2H])([2H])NC(=O)c1nnc(NC(=O)C2CC2)cc1Nc1cccc(-c2ncn(C)n2)c1OC", "pIC50": 7.05}
{"compound-structure-string": "N#Cc1cc(Nc2cc(NC3CC3)c3ncc(C(N)=O)n3n2)cc(C(F)(F)F)c1", "pIC50": 5.09}

I have 2 compounds here; please give me pIC50 for each one.
1. CNC(=O)c1cnc(Nc2ccc(C#N)cn2)cc1Nc1cccc(-c2ncn(C)n2)c1OC
2. [2H]C([2H])([2H])NC(=O)c1nnc(NC(=O)C2CC2)cc1Nc1ccccc1S(C)(=O)=O

### Response
[7.89, 7.82]
